# Test system: RPMI
# Test Details: MTT cytotoxicity assay in RPMI MM cell line
# Condition Context: RPMI, single phytocannabinoid 12.5 μM, daily, 72 hours, vs vehicle
Reported Metric: % VIABILITY ± S.D. (%)

>>> print(df.to_string())
                                   compound  tested_target     reported_metric  scale_unit  observed_result
0  CCCCCc1cc(O)c2c(c1)OC(C)(CCC=C(C)C)C=C2 (stereo not shown) [CBC]           RPMI  % VIABILITY ± S.D.           %            104.9
1  CCCCCc1cc(O)c(C/C=C(\C)CCC=C(C)C)c(O)c1 [CBG]           RPMI  % VIABILITY ± S.D.           %             99.3
2  C=C(C)[C@@H]1CCC(C)=C[C@H]1c1c(O)cc(CCC)cc1O [CBDV]           RPMI  % VIABILITY ± S.D.           %             70.2
3  CCCCCc1cc(O)c2c(c1)OC(C)(C)c1ccc(C)cc1-2 [CBN]           RPMI  % VIABILITY ± S.D.           %            102.6

====

# Test system: U266
# Test Details: MTT cytotoxicity assay in U266 MM cell line
# Condition Context: U266, single phytocannabinoid 25 μM, daily, 72 hours, vs vehicle
Listing of entries alongside the reported % VIABILITY ± S.D..
Reported Metric: % VIABILITY ± S.D. (%)

                                   molecule  scale_unit  observed_result
0  CCCCCc1cc(O)c2c(c1)OC(C)(CCC=C(C)C)C=C2 (stereo not shown)           %            101.2
1  C=C(C)[C@@H]1CCC(C)=C[C@H]1c1c(O)cc(CCC)cc1O           %             76.2
2  CCCCCc1cc(O)c2c(c1)OC(C)(C)c1ccc(C)cc1-2           %             61.1
3   CCCCCc1cc(O)c(C/C=C(\C)CCC=C(C)C)c(O)c1           %             87.7

====

Some compounds, each annotated with its measured IC50.
# Tested on: RPMI
# Test Details: MTT cytotoxicity assay in RPMI MM cell line
# Condition Context: Homo sapiens, 72 h, read-out: IC50 (μM) ± S.D.
Reported Metric: IC50 (µM)

In [3]: df
Out[3]:
                                   compound  reported_metric  observed_result
0  CCCCCc1cc(O)c2c(c1)OC(C)(C)c1ccc(C)cc1-2             IC50             23.6
1   CCCCCc1cc(O)c(C/C=C(\C)CCC=C(C)C)c(O)c1             IC50             31.4
2  CCCCCc1cc(O)c2c(c1)OC(C)(CCC=C(C)C)C=C2 (stereo not shown)             IC50             49.6
3  C=C(C)[C@@H]1CCC(C)=C[C@H]1c1c(O)cc(CCC)cc1O             IC50             21.7
